Target: human IKK-β (Homo sapiens, UniProt O14920)
Sequence (O14920 1-756): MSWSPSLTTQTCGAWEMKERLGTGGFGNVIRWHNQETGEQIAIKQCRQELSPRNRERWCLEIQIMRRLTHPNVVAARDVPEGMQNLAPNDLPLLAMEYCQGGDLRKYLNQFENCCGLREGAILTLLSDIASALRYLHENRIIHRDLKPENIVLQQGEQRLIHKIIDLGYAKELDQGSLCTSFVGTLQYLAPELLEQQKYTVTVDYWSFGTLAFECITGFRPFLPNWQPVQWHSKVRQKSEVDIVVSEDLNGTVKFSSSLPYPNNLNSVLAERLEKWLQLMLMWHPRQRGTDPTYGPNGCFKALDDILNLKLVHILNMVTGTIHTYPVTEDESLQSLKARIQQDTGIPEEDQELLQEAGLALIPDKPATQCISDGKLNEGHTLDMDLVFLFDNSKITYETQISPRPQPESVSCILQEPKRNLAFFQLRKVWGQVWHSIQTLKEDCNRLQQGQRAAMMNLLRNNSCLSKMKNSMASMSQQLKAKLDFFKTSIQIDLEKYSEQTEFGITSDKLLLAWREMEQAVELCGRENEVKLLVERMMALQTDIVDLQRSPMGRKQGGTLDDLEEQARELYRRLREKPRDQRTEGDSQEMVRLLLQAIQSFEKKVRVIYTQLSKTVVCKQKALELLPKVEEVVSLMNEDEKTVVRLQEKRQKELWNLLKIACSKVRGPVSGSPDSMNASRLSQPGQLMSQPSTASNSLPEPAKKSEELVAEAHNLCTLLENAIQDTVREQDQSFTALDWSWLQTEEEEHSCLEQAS
Where a name gives a salt, the structure may show the parent alone.
Parameter: IC50. Scope: all listed entries.

Take a look at these entries with their results.
N#Cc1c(C2CCC(N)CC2)cc(-c2ccccc2O)nc1N (stereo not shown)	< 500 nM
Nc1ncnc2nc(-c3c(O)cccc3OCC3CC3)cc(C3CCCNC3)c12 (stereo not shown) [Example 32-1, hydrochloride]	2000 to 10000 nM
N#Cc1c(NCCNS(=O)(=O)c2ccccc2)cc(-c2c(O)cccc2OCC2CC2)nc1N	< 500 nM

Prompt line: IC50 for N#Cc1c(C2CCCNC2)cc(-c2c(O)cccc2OCc2ccccc2F)nc1N (stereo not shown) ?
Response line: < 500 nM

###

molecular target: human IKK-β (Homo sapiens, UniProt O14920); construct: A cDNA fragment encoding human IKK-β open reading frame was generated by PCR; His tag (from pcDNA3.1/His C); made in house; host or cells: Sf21 insect cells (baculovirus); substrate made in E. coli; test: IKK-β kinase inhibitory assay; format: biochemical; conditions: compounds as yielded by solid phase synthesis, purity about 40 to 90%, read-out: In vitro activity grade (In vitro IC50)
Counter-ions that a name gives are not always drawn.
Parameter: IC50. Scope: all listed entries.

Take a look at these entries with their results.
N#Cc1c(C2CCNCC2)cc(-c2c(O)cccc2OCC2CCCO2)nc1N (stereo not shown)	< 500 nM
N#Cc1c(C2CCCNC2)cc(-c2c(O)cccc2OCc2ccc(F)cc2F)nc1N (stereo not shown)	< 500 nM
N#Cc1c(C2CCCNC2)cc(-c2c(O)cccc2OCc2cccc3ccccc23)nc1N (stereo not shown)	< 500 nM
Nc1nc(-c2ccccc2O)cc(C2CCCNC2)c1C(=O)O (stereo not shown) [Example 9-2, hydrochloride]	< 500 nM
CNC(=O)c1cc2c(C3CCCNC3)cc(-c3c(O)cccc3OCC3CC3)nc2[nH]c1=O (stereo not shown)	< 500 nM
Nc1nc(-c2ccccc2O)cc(C2CCCNC2)c1C(O)c1ccccc1 (stereo not shown) [Example 15-2, hydrochloride]	< 500 nM

Prompt line: IC50 for Cc1cc(-c2c(O)cccc2OCC2CC2)nc2c1COC(=O)N2 ?
Response line: 2000 to 10000 nM

Prompt line: And CC(=O)Nc1n[nH]c2nc(-c3ccccc3O)cc(C3CCCNC3)c12 (stereo not shown) [Example 5-2, hydrochloride] ?
Response line: > 10000 nM

Prompt line: And COCc1c(C2CCCNC2)cc(-c2ccccc2O)nc1N (stereo not shown) [Example 13-1, hydrochloride] ?
Response line: < 500 nM

Prompt line: And N#Cc1c(C2CCCNC2)cc(-c2sccc2O)nc1N (stereo not shown) [Example 1-7, hydrobromide] ?
Response line: < 500 nM

###

Where a name gives a salt, the structure may show the parent alone.
Target or system human IKK-β (Homo sapiens, UniProt O14920): recorded IC50 listed per item.

Take a look at these entries with their results.
O=C(c1cc2c(C3CCCNC3)cc(-c3c(O)cccc3OCC3CC3)nc2[nH]c1=O)N1CCOCC1 (stereo not drawn) [Example 31-08]	< 500 nM
Nc1nc(-c2c(O)cccc2OCC2CC2)cc(C2CCCNC2)c1CO (stereo not drawn) [Example 12-1, hydrochloride]	< 500 nM
CCc1cc(-c2ccccc2O)nc(N)c1C#N [Example 1-39]	2000 to 10000 nM
Nc1n[nH]c2nc(-c3ccccc3O)cc(C3CCCNC3)c12 (stereo not drawn) [Example 5-1, hydrochloride]	2000 to 10000 nM
N#Cc1c(C2CCCNC2)cc(-c2c(O)cccc2OCc2ccccc2Cl)nc1N (stereo not drawn) [Example 2-17]	< 500 nM
O=C(c1cc2c(C3CCCNC3)cc(-c3c(O)cccc3OCC3CC3)nc2[nH]c1=O)N1CCCC1 (stereo not drawn) [Example 31-05]	< 500 nM
Nc1nc(-c2ccccc2O)cc(C2CCCNC2)c1CO (stereo not drawn) [Example 11-1, hydrochloride]	< 500 nM
CC(C)(C)OC(=O)c1c(C2CCCNC2)cc(-c2ccccc2O)nc1N (stereo not drawn) [Example 9-1, hydrochloride]	< 500 nM
CNc1nc(-c2ccccc2O)cc(C2CCCNC2)c1C#N (stereo not drawn) [Example 4-3, hydrochloride]	2000 to 10000 nM
N#Cc1c(NCCCN)cc(-c2ccccc2O)nc1N [Example 34-11]	< 500 nM

Prompt line: IC50 for Nc1nc(-c2c(O)cccc2OCC2CC2)cc(C2CCNCC2)c1CON1C(=O)CCC1=O [Example 21-4, hydrochloride] ?
Response line: < 500 nM

Prompt line: And CCOC(=O)NCc1c(C2CCCNC2)cc(-c2c(O)cccc2OCC2CC2)nc1N (stereo not drawn) [Example 23-2, hydrochloride] ?
Response line: < 500 nM

Prompt line: And Nc1nc(-c2ccccc2O)cc2c1CN[C@@H]2Cc1ccccc1 [Example 20-2, hydrochloride] ?
Response line: < 500 nM

Prompt line: And CN(C)C(=O)NCc1c(C2CCCNC2)cc(-c2c(O)cccc2OCC2CC2)nc1N (stereo not drawn) [Example 23-11] ?
Response line: < 500 nM

Prompt line: And O=C1CCc2c(C3CCCNC3)cc(-c3c(O)cccc3OCC3CC3)nc2N1 (stereo not drawn) [Example 27-03] ?
Response line: < 500 nM

Prompt line: And Cn1c(=O)[nH]c2nc(-c3ccccc3O)cc(C3CCCNC3)c2c1=O (stereo not drawn) [Example 10-1, hydrochloride] ?
Response line: < 500 nM

Prompt line: And N#Cc1c(N2CCCCC2)cc(-c2ccccc2O)nc1N [Example 34-05] ?
Response line: > 10000 nM

Prompt line: And Nc1nc(-c2c(O)cccc2OCc2ccccc2)cc2c1CN1CCCC2C1 (stereo not drawn) [Example 20-1, hydrochloride] ?
Response line: 500 to 2000 nM

Prompt line: And N#Cc1c(N2CCCC(N)C2)cc(-c2ccccc2O)nc1N (stereo not drawn) [Example 34-3, hydrochloride] ?
Response line: 500 to 2000 nM

Prompt line: And NC(=O)c1cc2c(C3CCNCC3)cc(-c3c(O)cccc3OCC3CC3)nc2[nH]c1=O [Example 25-3, hydrochloride] ?
Response line: < 500 nM

Prompt line: And O=C(NC1CCC1)c1cc2c(C3CCCNC3)cc(-c3c(O)cccc3OCC3CC3)nc2[nH]c1=O (stereo not drawn) [Example 31-22] ?
Response line: < 500 nM

###

Target: human IKK-β (Homo sapiens, UniProt O14920)
Sequence (O14920 1-756): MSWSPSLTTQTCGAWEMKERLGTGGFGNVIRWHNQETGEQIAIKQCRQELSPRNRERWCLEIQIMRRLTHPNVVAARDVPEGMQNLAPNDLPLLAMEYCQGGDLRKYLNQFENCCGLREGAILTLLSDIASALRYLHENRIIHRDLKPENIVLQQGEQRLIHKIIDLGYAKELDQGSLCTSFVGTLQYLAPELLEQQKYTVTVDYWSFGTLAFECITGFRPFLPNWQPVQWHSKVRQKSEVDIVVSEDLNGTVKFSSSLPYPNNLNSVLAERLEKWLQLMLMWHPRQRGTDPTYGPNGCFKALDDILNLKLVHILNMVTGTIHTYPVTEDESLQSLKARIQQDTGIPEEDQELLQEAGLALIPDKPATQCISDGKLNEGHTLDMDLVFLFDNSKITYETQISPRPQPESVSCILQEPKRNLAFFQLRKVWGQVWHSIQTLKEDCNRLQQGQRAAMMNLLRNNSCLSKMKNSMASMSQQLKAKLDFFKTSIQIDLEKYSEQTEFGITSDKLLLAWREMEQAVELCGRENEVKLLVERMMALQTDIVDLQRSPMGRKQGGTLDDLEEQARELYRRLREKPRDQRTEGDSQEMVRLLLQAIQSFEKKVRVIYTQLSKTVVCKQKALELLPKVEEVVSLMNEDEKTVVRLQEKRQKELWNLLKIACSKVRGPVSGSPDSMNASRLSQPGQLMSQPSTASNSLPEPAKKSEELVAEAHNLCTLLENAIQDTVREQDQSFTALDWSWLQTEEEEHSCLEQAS
pIC50: −log10 of the molar value. Counter-ions that a name gives are not always drawn.
Parameter: pIC50. Scope: all listed entries.

Take a look at these entries with their results.
CCC(=O)NCc1c(C2CCCNC2)cc(-c2ccccc2O)nc1N (stereo not drawn) [Example 23-06]	5.70 to 6.30
CCCCCCCOc1cccc(O)c1-c1cc(C2CCNCC2)c(C#N)c(N)n1 [Example 2-73]	> 6.30
N#Cc1c(C2CCCNC2)cc(-c2c(O)cccc2OCc2csc3ccc(Cl)cc23)nc1N (stereo not drawn) [Example 2-47]	> 6.30

Prompt line: Write down the reported pIC50 of O=C1Nc2nc(-c3ccccc3O)cc(C3CCCNC3)c2CO1 (stereo not drawn) [Example 18-2, hydrochloride] , test system: human IKK-β (Homo sapiens, UniProt O14920).
Response line: > 6.30
